# System: SK-MEL-2 melanoma
# Method: NCI-60 one-dose screen, 48 h (100 = growth as untreated, 0 = no growth, -100 = all killed)
# Test Settings: 10 µM unless noted
Compounds without any hit were thinned out: in the full panel of roughly 83,000, 20% have a hit. Activity calls are given as the source filed them. The calls were made as follows: active = growth percent below 10; inactive = the rest.
Experimental Endpoint: growth

Challenge: # get_value(readout='growth', item= CCN(CC)C12CCCCC1(C)C(C#N)(C#N)C(C#N)=C(N)O2 (centres undefined) )
Response given: 112% (inactive)

Challenge: Entry Nc1nc2c(c3ncccc13)C(c1ccc(Cl)c(Cl)c1)Cc1ncccc1-2 (centres undefined) please
Response given: 18.4% (inactive)

Challenge: Entry `CCCCCCCCCC(=O)Oc1ccc(/C(=C(/C)c2ccccc2)c2ccc(OCCN3CCCC3)cc2)cc1` please
Response given: -31.5% (active)

Challenge: Entry `O=[N+]([O-])c1cccc(-c2nc3sccn3c2-c2ccnc(NCCCNS(=O)(=O)c3cccc(F)c3)n2)c1` please
Response given: -29.2% (active)

Challenge: Entry `CN1CCN(Cc2ccc(NC(=O)c3[nH]ncc3Nc3ccnc4ccsc34)cc2)CC1` please
Response given: 64.9% (inactive)

Challenge: Entry `Cc1cc(Cl)ccc1Nc1nc(C(F)(F)F)ccc1C(=O)N/N=C/c1ccc(F)cc1` please
Response given: -5.51% (active)

Challenge: Entry `Nc1c(C(=O)Nc2ccccc2Cl)sc2nc3c(cc12)CCCCCC3` please
Response given: 46.2% (inactive)

Challenge: Entry `COc1ccc(S(=O)(=O)NCCNc2nccc(-c3c(-c4cccc([N+](=O)[O-])c4)nc4sccn34)n2)cc1` please
Response given: 100% (inactive)

Challenge: Entry `O=S(=O)(Nc1ccc(F)c(Cl)c1)c1ccc(-c2cnc(C3CC3)o2)cc1` please
Response given: 38% (inactive)

Challenge: Entry `NS(=O)(=O)c1ccc(-n2ncc3c(=O)[nH]c(CN4CCN(c5cc6c(cc5F)c(=O)c(C(=O)O)cn6C5CC5)CC4)nc32)cc1` please
Response given: 106% (inactive)

Challenge: Entry `O=C1/C(=C\c2cn(C(=O)c3ccc(Cl)cc3)c3ccccc23)c2ccccc2N1c1c(Cl)cccc1Cl` please
Response given: 103% (inactive)

Challenge: Entry `CC/C=C\C[C@H](O)C/C=C1/C(=O)C=C[C@@H]1C/C=C\CCCC(=O)NC` please
Response given: 16.1% (inactive)

Challenge: Entry `CCOC(=O)c1nc(Nc2cc(C)[nH]n2)c2ccccc2n1` please
Response given: 89.4% (inactive)

Challenge: Entry C=C1CC2(OC1=O)C(=O)N(CCCCCCCCCCCCN1C(=O)C3(CC(=C)C(=O)O3)c3ccccc31)c1ccccc12 (centres undefined) please
Response given: 73.3% (inactive)

Challenge: Entry `CCN(C(=O)CN1CCN(c2cc3c(cc2F)c(=O)c(C(=O)O)cn3C2CC2)CC1)c1nc(-c2ccc(OC)cc2)cs1` please
Response given: 79.2% (inactive)

Challenge: Entry Cc1ccc(C2CC3c4ccccc4C2C2CCCCN32)cc1 (centres undefined) please
Response given: 88.2% (inactive)

Challenge: Entry O=C1Nc2ccc(Br)cc2C12CC(c1ccccc1)=NN2 (centres undefined) please
Response given: 74.9% (inactive)

Challenge: Entry CCOC(=O)C(Cc1cc(I)c(O)c(I)c1)NC(=O)c1ccccc1 (centres undefined) please
Response given: 97.6% (inactive)

Challenge: Entry `COc1ccc(C(=O)COc2ccc(/C=C3\Oc4ccc(Cl)cc4C3=O)cc2)cc1` please
Response given: 71.1% (inactive)
